Consider the following compounds; for each one, report its logP.
Output: the number by itself.

Exam item: What value of measured logP is listed for CC(=O)Nc1nc(=O)cc(-c2ccc([N+](=O)[O-])o2)s1 ?
Marked response: 1.01

Exam item: # lookup: logP of CSC1=NC(=O)C(=Cc2ccc([N+](=O)[O-])o2)S1 (stereo in doubt)
Marked response: 1.41

Exam item: I have this compound here, CC(=O)N(C)C1=NC(=O)/C(=C/c2ccc([N+](=O)[O-])o2)S1 , and I need its recorded logP.
Marked response: 1.05

Exam item: Returns the measured logP for the input compound. Input: CN1C(=N)S/C(=C/c2ccc([N+](=O)[O-])o2)C1=O
Marked response: 1.44

Exam item: What measured logP goes with CNc1nc(=O)cc(-c2ccc([N+](=O)[O-])o2)s1 ?
Marked response: 0.86

Exam item: # get_value(readout='logP', item= CCCN=C1SC(=Cc2ccc([N+](=O)[O-])o2)C(=O)N1CCC )
Marked response: 1.32

Exam item: State the recorded logP for this entry: CCN1C(=N)SC(=Cc2ccc([N+](=O)[O-])o2)C1=O
Marked response: 1.44

Exam item: Item CCC/N=C1\NC(=O)/C(=C/c2ccc([N+](=O)[O-])o2)S1 has what recorded logP?
Marked response: 1.24

Exam item: // returns reported logP for input CC(C)N=C1SC(=Cc2ccc([N+](=O)[O-])o2)C(=O)N1C(C)C
Marked response: 1.22

Exam item: Fill in the blank: the reported logP of CCN1C(=O)C(=Cc2ccc([N+](=O)[O-])o2)S/C1=N\C(C)=O is ____.
Marked response: 1.21

----------
Kindly supply the reported logP values for the records listed here.
# ASSAY METHOD TEXT: method code SF-AS, from DOI: 10.1021/jm00252a008, PMID: 4598022
Would you mind answering with just the numeric figure?

Exam item: Given CN(C)C1=NC(=O)/C(=C/c2ccc([N+](=O)[O-])o2)S1 , state its recorded logP.
Marked response: 1.16

Exam item: What logP value was documented for this compound, C/N=C1\SC(=Cc2ccc([N+](=O)[O-])o2)C(=O)N1C ?
Marked response: 1.42

Exam item: Look up logP: CC(C)/N=C1\NC(=O)/C(=C/c2ccc([N+](=O)[O-])o2)S1
Marked response: 1.29

Exam item: Form field: reported logP of CN1C(=O)/C(=C\c2ccc([N+](=O)[O-])o2)SC1=S
Marked response: 1.06

Exam item: Please give the measured logP for this compound: C/N=C1/NC(=O)/C(=C/C=C/c2ccc([N+](=O)[O-])o2)S1
Marked response: 1.35

----------
# ASSAY METHOD TEXT: method code SF-AS, from DOI: 10.1021/jm00252a008, PMID: 4598022
The threshold is inclusive: logP of exactly 1 counts as 1; values below receive 0.

Exam item: Answer whether logP of O=C1NC(=S)SC1=Cc1ccc([N+](=O)[O-])o1 is greater than or equal to 1.
Marked response: 0

Exam item: In plain terms: is recorded logP at least 1 for CC(=O)NC1=NC(=O)/C(=C/c2ccc([N+](=O)[O-])o2)S1 ?
Marked response: 1

Exam item: Assess whether reported logP for C=CCN1C(=O)S/C(=C\c2ccc([N+](=O)[O-])o2)C1=O sits at 1 or higher.
Marked response: 1

Exam item: Is reported logP greater than or equal to 1 here: CN1C(=O)S/C(=C\c2ccc([N+](=O)[O-])o2)C1=O
Marked response: 1

Exam item: Does the reported logP for O=C1NC(=Nc2ccccc2)SC1=Cc1ccc([N+](=O)[O-])o1 fall at or above the 1 mark?
Marked response: 1

Exam item: Confirm if logP reported for the compound CC/N=C1\NC(=O)/C(=C/c2ccc([N+](=O)[O-])o2)S1 is 1 or above.
Marked response: 1

Exam item: Check if logP >= 1 (inclusive). Item: C/N=C1\NC(=O)/C(=C/c2ccc([N+](=O)[O-])o2)S1
Marked response: 1

Exam item: Item C=CCN=C1SC(=Cc2ccc([N+](=O)[O-])o2)C(=O)N1CC=C with logP of 1 or above?
Marked response: 1

Exam item: Check the entry CCCN1C(=O)S/C(=C\c2ccc([N+](=O)[O-])o2)C1=O : does logP equal or exceed 1?
Marked response: 1

Exam item: Confirm if logP reported for the compound CCN1C(=O)S/C(=C/c2ccc([N+](=O)[O-])o2)C1=O is 1 or above.
Marked response: 1

Exam item: Given the entry O=C1NC(=O)/C(=C\c2ccc([N+](=O)[O-])o2)S1 , answer whether its logP meets or surpasses 1.
Marked response: 0

Exam item: Is it the case that CN1C(=O)SC(=CC=Cc2ccc([N+](=O)[O-])o2)C1=O has logP reaching or exceeding 1?
Marked response: 1

Exam item: Given the entry O=c1cc(-c2ccc([N+](=O)[O-])o2)sc(=O)[nH]1 , answer whether its logP meets or surpasses 1.
Marked response: 0

Exam item: Check if logP >= 1 (inclusive). Item: CCCN1C(=O)/C(=C/c2ccc([N+](=O)[O-])o2)S/C1=N\C(C)=O
Marked response: 1

Exam item: Does the compound CC(=O)N(C)C1=NC(=O)/C(=C\C=C/c2ccc([N+](=O)[O-])o2)S1 have recorded logP that is 1 or more?
Marked response: 1

Exam item: decide whether the reported logP for CCN(CC)C1=NC(=O)/C(=C/c2ccc([N+](=O)[O-])o2)S1 is at least 1.
Marked response: 1

Exam item: Does the compound NC1=NC(=O)C(=Cc2ccc([N+](=O)[O-])o2)S1 (stereo in doubt) have recorded logP that is 1 or more?
Marked response: 1

Exam item: Is the recorded value of logP equal to or greater than 1 for this compound? CN(C)c1nc(=O)cc(-c2ccc([N+](=O)[O-])o2)s1
Marked response: 0

Exam item: Item CC(C)N1C(=O)S/C(=C\c2ccc([N+](=O)[O-])o2)C1=O with logP of 1 or above?
Marked response: 1

Exam item: Does CC(=O)N=C1S/C(=C\c2ccc([N+](=O)[O-])o2)C(=O)N1C (stereo in doubt) have a reported logP of at least 1?
Marked response: 1

Exam item: I'd appreciate it if you could say whether O=C1NC(=S)SC1=CC=Cc1ccc([N+](=O)[O-])o1 has logP at least equal to 1.
Marked response: 0

Exam item: Record CC(=O)NC1=NC(=O)/C(=C\C=Cc2ccc([N+](=O)[O-])o2)S1 (stereo in doubt) ; criterion: logP no lower than 1. Met?
Marked response: 0
